# Tested on: A498 renal
# MEASUREMENT_NOTES: NCI tumour cell line growth inhibition, 48 h
EXPERIMENTAL_READOUT: TGI

Working through the 8 compounds below one at a time, give TGI for each.
1. Cc1ccc(C(=O)C2CC3(CCC2(O)c2ccc(C)cc2)CC(=O)Nc2ccccc2C3=O)cc1 (stereo unspecified)
2. CC(=O)Nc1ccc(C(=O)COc2cccc(/C=C3\CCc4ccccc4C3=O)c2)cc1
3. COc1cc(CC2C(=O)OCC2Cc2ccc(OC)c(OC)c2)ccc1O (stereo unspecified)
4. Cc1c(C(=O)C/C(=N/NC(=O)CC#N)C(N)=O)[n+](=O)c2ccccc2n1[O-]
5. CN(C)c1ccc(/C=C2\Cc3ccccc3C2=O)cc1Br
6. COC(=O)C(NC(=O)c1ccccc1)c1ccc(OC)c(I)c1 (stereo unspecified)
7. O=C(/C=C/N1CCN(c2cccc(Cl)c2)CC1)c1ccc(Cl)cc1
8. Nc1c(/C=C/c2cc3cc(C4=NCCN4)ccc3o2)[nH]c2cc(C3=NCCN3)ccc12

### Response
1. > 100 µM
2. > 100 µM
3. > 100 µM
4. > 100 µM
5. > 100 µM
6. > 100 µM
7. 48.1 µM
8. > 100 µM

Working through the 6 compounds below one at a time, give TGI for each.
1. O=C(c1ccccc1)c1ccc(N2C(=O)C3C4c5ccccc5C(/C=C/C(=O)c5ccccn5)(c5ccccc54)C3C2=O)cc1 (stereo unspecified)
2. CCc1nc2cc(F)ccc2[nH]c1=O
3. O=C(COC(=O)[C@H](C[Se][Se]C[C@H](NC(=O)c1ccc(Br)cc1F)C(=O)OCC(=O)c1ccc(F)cc1)NC(=O)c1ccc(Br)cc1F)c1ccc(F)cc1
4. Cc1[nH]n(C(=O)c2ccc(Cl)cc2)c(=O)c1/C=C1\C(O)=CC(=O)c2ccccc21
5. COC(=O)CCSC(=O)Nc1ccccc1Cl
6. N#Cc1c(N/N=C/c2c(Cl)cccc2Cl)nc(N)nc1N1CCCC1

### Response
["5.8 µM", "> 100 µM", "1.04 µM", "> 100 µM", "> 100 µM", "3.18 µM"]

Working through the 5 compounds below one at a time, give TGI for each.
1. COc1cc(COC(=O)NC(Cc2cccs2)C(=O)O)c([N+](=O)[O-])cc1OC (stereo unspecified)
2. O=NNc1nc(-c2ccccn2)nc2ccccc12
3. CCc1c[nH]c2ncnc(N3CC[C@](N)(CNC(=O)c4ccc(F)cc4F)C3)c12
4. CC(=O)Oc1c(OC(C)C)cc(=O)n2ccsc12
5. Nc1ccc(N)c2c1C(=O)c1cccc([N+](=O)[O-])c1C2=O

### Response
1: > 100 µM; 2: > 100 µM; 3: 1.73 µM; 4: > 100 µM; 5: 1.03 µM

Working through the 2 compounds below one at a time, give TGI for each.
1. CC(C)c1nc(Cl)c(Cl)c(Cl)n1
2. Nc1nc(N)c2ncn(Cc3ccccc3)c2n1

### Response
1: 52 µM; 2: > 100 µM

* * *

# Test system: OVCAR-3 ovarian
# MEASUREMENT_NOTES: NCI tumour cell line growth inhibition, 48 h
EXPERIMENTAL_READOUT: TGI

Worked cases, answers included:
- CC1SCCc2nc3ccccc3n21 (stereo unspecified): > 100 µM
- CC1=CC(=O)N2[C@H](OC[C@@H]2C(C)C)O1: > 100 µM
- C=CCCC1(CCP(=O)(c2ccccc2)c2ccccc2)OCCO1: > 100 µM
- CN(C)c1ccc(/C=C2\CCCCCC2=O)cc1: > 100 µM
- CCOC(=O)c1c(/C=N\Nc2ccccc2)nc2ccccc2c1-c1ccccc1: > 100 µM

Working through the 3 compounds below one at a time, give TGI for each.
1. COc1ccc(-c2cc(-c3ccc(Nc4ccnc5cc(C(F)(F)F)ccc45)cc3)nc(N)c2C#N)c2ccccc12
2. CCOC(=O)C(NC(=O)c1cccc(Cl)c1)(N1CCN(c2cc3c(cc2F)c(=O)c(C(=O)O)cn3CC)CC1)C(F)(F)F (stereo unspecified)
3. O=C1Cc2c([nH]c3c(Br)cccc23)-c2ccccc2N1

### Response
1. > 100 µM
2. 38.2 µM
3. > 100 µM

Working through the 6 compounds below one at a time, give TGI for each.
1. CCCCCCCCCCCCCCCC(=O)OCC(COP(=O)(O)OCCNC(=O)CCSSc1ccccn1)OC(=O)CCCCCCCCCCCCCCC (stereo unspecified)
2. CC(C)S1=C2C(=O)CC(C)(C)CC2=Nc2ccccc21 (stereo unspecified)
3. N#Cc1c2c(c(Nc3ccc(Cl)cc3)n3c1nc1ccccc13)CCCC2
4. N#Cc1c(N)nc(N2CCOCC2)c(C#N)c1-c1ccc(Cl)cc1Cl
5. Cc1c(N(Cc2ccccc2)Cc2ccccc2)nc(S(C)(=O)=O)nc1S(C)(=O)=O
6. CN1OC(CO)CC12C1CC3CC(C1)CC2C3 (stereo unspecified)

### Response
1. > 100 µM
2. > 100 µM
3. > 100 µM
4. 41.3 µM
5. 3.36 µM
6. > 100 µM

Working through the 3 compounds below one at a time, give TGI for each.
1. CC(C)=NO.CC(C)=NO.CC(C)=NO.CC(C)=NO.[Ti]
2. COc1ccc(-c2cc(=O)c3cc(OC)c(OC)cc3[nH]2)cc1OC
3. OCCn1c(-c2ccncc2)c(-c2ccc(F)cc2)c2ncccc21

### Response
["> 100 µM", "> 100 µM", "> 25 µM"]

Working through the 4 compounds below one at a time, give TGI for each.
1. CC1=C(C(=O)OC(C)(C)C)C(c2ccc([N+](=O)[O-])cc2)C(C(=O)OC(C)(C)C)=C(C)N1
2. CN1C/C(=C\c2ccco2)c2nc(N)nc(-c3ccco3)c2C1
3. Nc1c(/C=C/c2cc3cc(C4=NCCN4)ccc3o2)[nH]c2cc(C3=NCCN3)ccc12
4. COc1ccc(C[C@H](N)C(=O)N[C@@H]2[C@@H](CO)OC(n3cnc4c(N(C)C)ncnc43)[C@@H]2O)cc1 (stereo partly specified)

### Response
36.7 µM
> 100 µM
> 100 µM
0.535 µM

* * *

# System: A498 renal
# MEASUREMENT_NOTES: NCI tumour cell line growth inhibition, 48 h
EXPERIMENTAL_READOUT: TGI

• Oc1ccc(/C=N/Nc2nnc(N/N=C/c3ccc(O)cc3O)c3ccccc23)c(O)c1 = 3.51 µM
• Cc1cc(NS(=O)(=O)c2ccc(NC(NC(=O)OC(C)C)(C(F)(F)F)C(F)(F)F)cc2)nc(C)n1 = > 100 µM
• CC(C)C12CCC3(CCC4C(C)(C(=O)O)CCCC4(C)C3C1)C(CN)C2 (stereo unspecified) = 98.4 µM
• COc1ccc(-c2ccc(/C=N/n3c(COc4ccc(Cl)c(C)c4)nn(CN4CCOCC4)c3=S)o2)c([N+](=O)[O-])c1 = 25.7 µM
• Cc1cc(N(CCCl)CCCl)ccc1/C=N\NC(=O)c1cccnc1 = 2.92 µM
• O=C(Nc1ccccc1)Oc1ccccc1C1CCCCC1 = > 100 µM
• Cc1c(-c2ccc(N3CCc4cccc(C(=O)Nc5nc6ccccc6s5)c4C3)nc2C(=O)O)cnn1CC12CC3CC(CC(C3)C1)C2 = < 0.0127 µM
• CC1CC2C(=O)N(c3ccccc3)C(=O)C2c2[nH]c3ccccc3c21 (stereo unspecified) = > 100 µM

Working through the 4 compounds below one at a time, give TGI for each.
1. CC(C)=C[C@@H]1C[C@H](C)[C@H]2CC[C@H](C)[C@H]3C(=O)C(O)=C(C)C(=O)[C@]123
2. CC(C)[C@H](NC(=O)OCc1ccccc1)C(=O)N[C@H](/C=C/C(=O)OC(C)(C)C)CO
3. COc1ccc(-c2cc(-c3ccc(Nc4ccnc5cc(C(F)(F)F)ccc45)cc3)nc(N)c2C#N)c2ccccc12
4. CC(=O)OC/C=C/Cn1nc(Br)c(=O)[nH]c1=O

### Response
["> 100 µM", "> 100 µM", "> 100 µM", "> 100 µM"]

Working through the 5 compounds below one at a time, give TGI for each.
1. CCOC(=O)C1C(=O)C(=O)N2CCc3c([nH]c4ccccc34)C12 (stereo unspecified)
2. COc1ccc(C[C@H](N)C(=O)N[C@@H]2[C@@H](CO)OC(n3cnc4c(N(C)C)ncnc43)[C@@H]2O)cc1 (stereo partly specified)
3. CNc1nc(OC)c2c(n1)[n+](C)cn2C
4. O=C1OC(c2ccccc2)=N/C1=C\c1ccc(N(CCCl)CCCl)cc1
5. CCOC(=O)c1ccc(-c2cccs2)[nH]1

### Response
1. > 100 µM
2. 1.09 µM
3. > 100 µM
4. > 100 µM
5. > 100 µM

Working through the 2 compounds below one at a time, give TGI for each.
1. COC(=O)c1ccccc1NCc1cc(O)ccc1O
2. CCCNc1ncnc2c1cnn2C

### Response
1. > 89.2 µM
2. > 100 µM

Working through the 2 compounds below one at a time, give TGI for each.
1. COc1ccc(-c2cc(=O)c3cc(OC)c(OC)cc3[nH]2)cc1OC
2. Cn1c(=O)c2c(n(C)c1=O)n1c(=O)c3ccccc3nc1n2C

### Response
> 100 µM
> 100 µM
